- experimental-target: IDH1(R132H) (Homo sapiens, UniProt O75874, R132H)
- Sequence (O75874 whole entry R132H): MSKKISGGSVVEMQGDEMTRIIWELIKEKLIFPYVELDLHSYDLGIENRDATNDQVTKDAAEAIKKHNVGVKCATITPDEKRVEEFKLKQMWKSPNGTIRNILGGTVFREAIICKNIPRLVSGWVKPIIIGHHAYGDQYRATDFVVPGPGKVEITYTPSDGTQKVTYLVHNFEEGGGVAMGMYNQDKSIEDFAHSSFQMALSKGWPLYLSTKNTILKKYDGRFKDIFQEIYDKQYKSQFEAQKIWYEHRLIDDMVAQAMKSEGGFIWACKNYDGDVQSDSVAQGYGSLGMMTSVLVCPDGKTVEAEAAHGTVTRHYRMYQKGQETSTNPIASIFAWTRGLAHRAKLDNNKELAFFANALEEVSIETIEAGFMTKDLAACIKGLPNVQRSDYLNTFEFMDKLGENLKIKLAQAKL
- procedure-details: IDH1
assay-metric: Ki (µM)

| compound | experimental-target | val |
| --- | --- | --- |
| O=C1C(=Cc2ccc(O)c(O)c2)NC(=S)N1Cc1ccccc1 [Compound 4] | IDH1(R132H) (Homo sapiens, UniProt O75874, R132H) | 4.7 |
